# targetOrTestSystem: P110 δ/Pi3K δ (Homo sapiens)
# Sequence (O00329 whole entry, canonical isoform): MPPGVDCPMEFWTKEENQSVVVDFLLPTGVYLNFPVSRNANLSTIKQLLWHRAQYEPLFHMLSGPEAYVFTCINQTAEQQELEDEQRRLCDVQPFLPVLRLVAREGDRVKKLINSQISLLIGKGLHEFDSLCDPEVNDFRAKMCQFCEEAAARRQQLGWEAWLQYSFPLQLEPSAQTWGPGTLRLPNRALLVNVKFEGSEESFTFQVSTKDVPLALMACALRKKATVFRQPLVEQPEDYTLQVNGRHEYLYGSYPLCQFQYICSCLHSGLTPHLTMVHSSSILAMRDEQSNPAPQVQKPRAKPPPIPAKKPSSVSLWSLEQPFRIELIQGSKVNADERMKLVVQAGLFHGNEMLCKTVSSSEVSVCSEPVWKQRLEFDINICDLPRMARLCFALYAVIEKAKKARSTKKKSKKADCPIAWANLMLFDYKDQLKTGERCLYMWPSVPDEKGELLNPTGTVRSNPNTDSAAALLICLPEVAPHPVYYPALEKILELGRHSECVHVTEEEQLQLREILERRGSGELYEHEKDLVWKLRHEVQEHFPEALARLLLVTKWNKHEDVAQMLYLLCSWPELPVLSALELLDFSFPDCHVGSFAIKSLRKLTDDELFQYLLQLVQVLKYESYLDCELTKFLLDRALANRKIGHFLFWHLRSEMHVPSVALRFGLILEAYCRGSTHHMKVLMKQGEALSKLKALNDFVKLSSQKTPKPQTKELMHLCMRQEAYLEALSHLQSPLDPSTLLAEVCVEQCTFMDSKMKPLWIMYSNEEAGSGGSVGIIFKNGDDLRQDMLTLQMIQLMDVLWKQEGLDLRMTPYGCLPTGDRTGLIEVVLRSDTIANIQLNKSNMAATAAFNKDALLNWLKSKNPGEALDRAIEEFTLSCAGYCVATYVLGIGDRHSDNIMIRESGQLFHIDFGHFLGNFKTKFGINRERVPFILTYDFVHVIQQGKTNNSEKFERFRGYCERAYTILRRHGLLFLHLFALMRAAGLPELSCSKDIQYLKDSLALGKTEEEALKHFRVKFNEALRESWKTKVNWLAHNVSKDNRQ
# Sequence (P27986 whole entry partner, canonical isoform): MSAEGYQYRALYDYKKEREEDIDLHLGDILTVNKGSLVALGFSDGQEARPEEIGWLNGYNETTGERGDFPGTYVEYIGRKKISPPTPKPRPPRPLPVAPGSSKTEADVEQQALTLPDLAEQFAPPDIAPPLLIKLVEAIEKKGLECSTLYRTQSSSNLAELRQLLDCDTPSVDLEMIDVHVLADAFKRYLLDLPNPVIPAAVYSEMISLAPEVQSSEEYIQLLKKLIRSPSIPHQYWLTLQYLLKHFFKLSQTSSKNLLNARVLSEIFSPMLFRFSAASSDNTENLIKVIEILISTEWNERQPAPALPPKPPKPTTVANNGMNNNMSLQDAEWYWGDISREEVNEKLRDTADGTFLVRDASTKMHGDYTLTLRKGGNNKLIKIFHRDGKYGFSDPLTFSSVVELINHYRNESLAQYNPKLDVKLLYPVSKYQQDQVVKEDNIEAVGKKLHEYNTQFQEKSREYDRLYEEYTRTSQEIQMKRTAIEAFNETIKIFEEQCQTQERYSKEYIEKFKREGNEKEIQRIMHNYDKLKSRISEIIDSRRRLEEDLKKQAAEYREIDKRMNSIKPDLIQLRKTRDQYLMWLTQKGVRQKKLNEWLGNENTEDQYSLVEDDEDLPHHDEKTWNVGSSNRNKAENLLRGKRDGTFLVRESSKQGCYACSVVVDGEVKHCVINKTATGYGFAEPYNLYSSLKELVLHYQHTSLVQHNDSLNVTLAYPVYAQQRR
# assayProcedure: Fluorescent (HTRF) determination of PI3K enzyme activity, δ isoform
# Type: biochemical
observable: inhibition at 1 µM

These solved cases illustrate the format of a correct answer.
• COc1cc(F)cc(-c2nn(Cc3oc4ccccc4c(=O)c3-c3cccc(F)c3)c3ncnc(N)c23)c1 = < 50%
• CC(c1oc2ccccc2c(=O)c1-c1ccccc1)n1nc(-c2ccc3cn[nH]c3c2)c2c(N)ncnc21 (stereo not shown) = 50 to 100%
• Cl.O=c1c(-c2ccc(F)cc2)c(CN2CCOCC2)oc2ccccc12 [Example 18a, hydrochloride] = < 50%

Kindly note the recorded inhibition at 1 µM for Nc1ncnc2c1c(C#CCO)nn2Cc1oc2ccccc2c(=O)c1-c1ccccc1 , which is 50 to 100%

Kindly note the recorded inhibition at 1 µM for CC(c1oc2ccccc2c(=O)c1-c1ccccc1)n1cnc2c(N)ncnc21 (stereo not shown) , which is 50 to 100%

Kindly note the recorded inhibition at 1 µM for CC(c1oc2ccccc2c(=O)c1-c1cccc(F)c1)n1nc(-c2cccc3[nH]ncc23)c2c(N)ncnc21 (stereo not shown) , which is 50 to 100%

Kindly note the recorded inhibition at 1 µM for CC(c1oc2ccccc2c(=O)c1-c1cccc(F)c1)n1nc(-c2cc(O)cc(F)c2)c2c(N)ncnc21 (stereo not shown) [Example 76a] , which is 50 to 100%

----------
melting point for assorted compounds

These solved cases illustrate the format of a correct answer.
* CC(c1oc2ccccc2c(=O)c1-c1cccc(F)c1)n1ncc2c(Cl)ncnc21 (stereo not drawn) | 197 to 201 °C
* O=c1c(-c2ccccc2)c(CNc2ncnc3[nH]cnc23)oc2ccc(F)cc12 | 183 to 186 °C
* Nc1ncnc2c1c(-c1ccc3cn[nH]c3c1)nn2Cc1oc2ccccc2c(=O)c1-c1ccccc1 | 140 to 143 °C
* CC(c1oc2ccccc2c(=O)c1-c1cccc(F)c1)n1nc(-c2cccc3[nH]ncc23)c2c(N)ncnc21 (stereo not drawn) | 231 to 233 °C
* Cc1ccccc1-c1c(Cn2cnc3c(N)ncnc32)oc2ccc(Br)cc2c1=O | 252 to 255 °C
* CC(=O)c1ccc(-c2nn(C(C)c3oc4ccccc4c(=O)c3-c3cccc(F)c3)c3ncnc(N)c23)cc1 (stereo not drawn) | 218 to 221 °C

Kindly note the recorded melting point for CC(c1oc2ccccc2c(=O)c1-c1ccccc1F)n1cnc2c(N)ncnc21 (stereo not drawn) , which is 247 to 250 °C

Kindly note the recorded melting point for Cc1n[nH]c2cc(-c3nn([C@H](C)c4oc5ccccc5c(=O)c4-c4cccc(F)c4)c4ncnc(N)c34)ccc12 (single isomer, unassigned) , which is 157 to 160 °C

----------
observable: melting point

These solved cases illustrate the format of a correct answer.
* CC(=O)Nc1cccc(-c2nn(Cc3oc4ccccc4c(=O)c3-c3ccccc3)c3ncnc(N)c23)c1 | 122 to 123 °C
* COc1cc(OC)cc(-c2nn(C(C)c3oc4ccccc4c(=O)c3-c3cccc(F)c3)c3ncnc(N)c23)c1 (stereo not shown) | 224 to 227 °C
* CC(c1oc2ccccc2c(=O)c1-c1cccc(F)c1)n1nc(-c2ccc(F)c(O)c2)c2c(N)ncnc21 (stereo not shown) [Example 82a] | 241 to 244 °C

Continue with the molecule presented below.
Kindly note the recorded melting point for CCOc1ccc(-c2nn(C(C)c3oc4ccccc4c(=O)c3-c3cccc(F)c3)c3ncnc(N)c23)cc1F (stereo not shown) , which is 216 to 218 °C
